# Tested on: DU-145 prostate
# Procedure summary: NCI-60 one-dose screen, 48 h (100 = growth as untreated, 0 = no growth, -100 = all killed)
# Run conditions: 10 µM unless noted
The panel holds about 83,000 compounds, 20% with a hit somewhere; the sample as a whole holds those more often.
Quick rule: growth of at least 80% means y, below that means n.

Would you please look over these solved cases?
1. COc1cc(C=Nc2oc(-c3ccccc3)c(-c3ccccc3)c2C#N)cc(CN2CCCC2)c1O    y
2. O=C(Nc1cc(Cl)cc(Cl)c1)Oc1c(Cl)c(Cl)c(Cl)c(Cl)c1Cl    y
3. Cc1cccc(NC(=O)N/C(N)=N/c2nc3ccccc3s2)c1    n
4. CN(C)CCCNC(=O)c1cncnc1Nc1ccc2c(ccn2Cc2cccc(F)c2)c1    y
5. O=C(NCc1ccc(Cn2c(=O)sn(-c3ccccc3)c2=O)cc1)OCc1ccc2cccc(O)c2n1    n

Determine whether measured growth meets or exceeds 80% for `COc1ccc(N/N=C/c2cn(-c3ccc(C(=O)O)cc3)nc2-c2cc3ccccc3oc2=O)cc1`
y

Determine whether measured growth meets or exceeds 80% for `CN(C)c1ccc(/C=N\NC(=O)c2ccc3nc(-c4ccc(Cl)cc4)[nH]c3c2)cc1`
y

Determine whether measured growth meets or exceeds 80% for `CCOC(=O)CC[C@H](NC(=O)c1ccc(N(C)Cc2cnc3nc(N)nc(N)c3n2)c2ccccc12)C(=O)OCC`
n

----------
# System: SF-539 CNS
# Procedure summary: NCI-60 one-dose screen, 48 h
# Run conditions: 10 µM unless noted
About 83,000 compounds went through this panel and 20% of them were active in at least one assay; those are over-represented in the sample as a whole. Calls of active or inactive are those of the source. Rule for the calls: active = growth percent below 10; inactive = the rest.
Please reply with one of these outcomes: class 1 (active), class 0 (inactive)

1. C#Cc1cccc(NC(=O)C2CCCCN2C(=O)CCl)c1 (stereo not given)    class 1
2. COC(=O)c1ccc2c(c1)c1c(C)c3cnccc3c(C)c1n2C    class 1
3. O=C(NCCCCO)c1cncnc1Nc1ccc2c(ccn2Cc2cccc(F)c2)c1    class 0
4. O=C1/C(=C/c2ccc(Cl)cc2)CN(C(=O)C(Cl)Cl)C/C1=C\c1ccc(Cl)cc1    class 1

For CCN1C(=O)N(CC)C2C1NN=c1s/c(=C\c3ccc(OC)cc3)c(=O)n12 (stereo not given) , which call appears in the assay record?
class 1

----------
# Test system: NCI-H322M lung
# Procedure summary: NCI-60 one-dose screen, 48 h (100 = growth as untreated, 0 = no growth, -100 = all killed)
# Run conditions: 10 µM unless noted
The panel holds about 83,000 compounds, 20% with a hit somewhere; the sample as a whole holds those more often.
What growth was measured for each of the following?
Give bare numbers, in %.

Below: 10 compounds and their reported growth.
1. COc1ccc(-c2cc(-c3cccnc3)nc3sc4c(N)c(C(C)=O)c(-c5ccccc5)nc4c23)cc1OC    90.5
2. Cc1ccc2c(c1)=C/C(=C\c1cc(-c3ccccc3)[nH]c1O)C(=O)N=2    82.2
3. O=C(Nc1ccc(Oc2cccc(Cl)c2)c(Cl)c1)c1cccnn1    93.9
4. Cc1cc(NCCCNc2ccnc3cc(Cl)ccc23)nc(Nc2ccc(C(=O)N3CCCCC3)cc2)n1    17.8
5. Nc1ccc(Br)cc1C(F)(F)F    119
6. COc1ccc(C2[C@@H](Cl)C(=O)N2c2cc(OC)c(OC)c(OC)c2)cc1Cl (some centres undefined)    40
7. O=C(CSc1nnnn1-c1ccccc1)Nc1ccc(Oc2ccccc2)cc1    114
8. Cc1ccc2cnc(N)c(C#Cc3cc(C(=O)Nc4ccc(CN5CCN(C)CC5)c(C(F)(F)F)c4)cnc3C)c2c1    17.8
9. O=[N+]([O-])c1ccccc1Nc1ccc2ccccc2c1    108
10. C=CCn1cc(-c2nc3ccccc3s2)c2cc(-c3ccc4c5c(cccc35)C(=O)N(CCO)C4=O)ccc21    98.8

For each listed entry, give its growth.
1. CCN1C2CCC1/C(=C\c1ccccc1)C(=O)/C2=C/c1ccccc1
2. COc1ccc(CNc2ccc3nc(NC(=O)CN4CCCCCC4)sc3c2)cc1

1: 51.6; 2: 106
